test system: Klebsiella pneumoniae; test: Antibacterial activity against Klebsiella pneumoniae at 200 ug/ml after 24 hrs by agar well diffusion method; format: functional; conditions: read-out: DIZ
attribute_measured: zone of inhibition at 200 µg/mL (mm)

{"structure_smiles_string": "CCn1cc(C=C2C(=O)OC(C)(C)OC2=O)c2cc(Br)ccc21", "attribute_measured": "zone of inhibition at 200 µg/mL", "reported_measurement": 14}
{"structure_smiles_string": "Cn1cc(C=C2C(=O)OC(C)(C)OC2=O)c2cc(Br)ccc21", "attribute_measured": "zone of inhibition at 200 µg/mL", "reported_measurement": 18}
{"structure_smiles_string": "CCn1cc(C=C2C(=O)OC(C)(C)OC2=O)c2cc([N+](=O)[O-])ccc21", "attribute_measured": "zone of inhibition at 200 µg/mL", "reported_measurement": 18}
{"structure_smiles_string": "CCn1cc(C=C2C(=O)OC(C)(C)OC2=O)c2ccccc21", "attribute_measured": "zone of inhibition at 200 µg/mL", "reported_measurement": 18}

====

Listed here are compounds together with their documented zone of inhibition at 500 µg/mL.
tested on: Klebsiella pneumoniae; test: Antibacterial activity against Klebsiella pneumoniae at 500 ug/ml after 24 hrs by agar well diffusion method; format: functional; conditions: read-out: DIZ
attribute_measured: zone of inhibition at 500 µg/mL (mm)

{"compound": "CC1(C)OC(=O)C(=Cc2c[nH]c3ccc([N+](=O)[O-])cc23)C(=O)O1", "reported_measurement": 34}
{"compound": "Cn1cc(C=C2C(=O)OC(C)(C)OC2=O)c2cc(Br)ccc21", "reported_measurement": 32}
{"compound": "COc1ccc2c(c1)c(C=C1C(=O)OC(C)(C)OC1=O)cn2C", "reported_measurement": 32}
{"compound": "Cn1cc(C=C2C(=O)OC(C)(C)OC2=O)c2cc([N+](=O)[O-])ccc21", "reported_measurement": 31}
{"compound": "CCn1cc(C=C2C(=O)OC(C)(C)OC2=O)c2cc(Br)ccc21", "reported_measurement": 30}
{"compound": "CCn1cc(C=C2C(=O)OC(C)(C)OC2=O)c2cc([N+](=O)[O-])ccc21", "reported_measurement": 32}
{"compound": "CN[C@@H]1[C@H](O[C@H]2[C@H](O[C@H]3[C@H](O)[C@@H](O)[C@H](N=C(N)N)[C@@H](O)[C@@H]3N=C(N)N)O[C@@H](C)[C@]2(O)C=O)O[C@@H](CO)[C@H](O)[C@H]1O [STREPTOMYCIN]", "reported_measurement": 37}
{"compound": "COc1ccc2[nH]cc(C=C3C(=O)OC(C)(C)OC3=O)c2c1", "reported_measurement": 34}
{"compound": "Cn1cc(C=C2C(=O)OC(C)(C)OC2=O)c2ccccc21", "reported_measurement": 31}
{"compound": "CCn1cc(C=C2C(=O)OC(C)(C)OC2=O)c2cc(OC)ccc21", "reported_measurement": 31}
{"compound": "CC1(C)OC(=O)C(=Cc2c[nH]c3ccccc23)C(=O)O1", "reported_measurement": 33}
{"compound": "CCn1cc(C=C2C(=O)OC(C)(C)OC2=O)c2ccccc21", "reported_measurement": 31}
{"compound": "CC1(C)OC(=O)C(=Cc2c[nH]c3ccc(Br)cc23)C(=O)O1", "reported_measurement": 34}

====

system: Escherichia coli; test: Antibacterial activity against Escherichia coli ATCC 8739 at 200 ug/ml after 24 hrs by agar well diffusion method; type: functional; settings: ATCC 8739, 24 h, read-out: DIZ
attribute_measured: zone of inhibition at 200 µg/mL (mm)

{"structure_smiles_string": "CC1(C)OC(=O)C(=Cc2c[nH]c3ccc([N+](=O)[O-])cc23)C(=O)O1", "attribute_measured": "zone of inhibition at 200 µg/mL", "units_of_measure": "mm", "reported_measurement": 17}
{"structure_smiles_string": "COc1ccc2[nH]cc(C=C3C(=O)OC(C)(C)OC3=O)c2c1", "attribute_measured": "zone of inhibition at 200 µg/mL", "units_of_measure": "mm", "reported_measurement": 17}
{"structure_smiles_string": "COc1ccc2c(c1)c(C=C1C(=O)OC(C)(C)OC1=O)cn2C", "attribute_measured": "zone of inhibition at 200 µg/mL", "units_of_measure": "mm", "reported_measurement": 15}
{"structure_smiles_string": "CCn1cc(C=C2C(=O)OC(C)(C)OC2=O)c2cc([N+](=O)[O-])ccc21", "attribute_measured": "zone of inhibition at 200 µg/mL", "units_of_measure": "mm", "reported_measurement": 15}

====

test system: Bacillus subtilis; experiment: Antibacterial activity against Bacillus subtilis at 100 ug/ml after 24 hrs by agar well diffusion method; format: functional; details: read-out: DIZ

{"structure_smiles_string": "CC1(C)OC(=O)C(=Cc2c[nH]c3ccc(Br)cc23)C(=O)O1", "zone of inhibition at 100 µg/mL": "11.5 mm"}
{"structure_smiles_string": "CCn1cc(C=C2C(=O)OC(C)(C)OC2=O)c2cc([N+](=O)[O-])ccc21", "zone of inhibition at 100 µg/mL": "9 mm"}
{"structure_smiles_string": "COc1ccc2c(c1)c(C=C1C(=O)OC(C)(C)OC1=O)cn2C", "zone of inhibition at 100 µg/mL": "9 mm"}
{"structure_smiles_string": "Cn1cc(C=C2C(=O)OC(C)(C)OC2=O)c2cc(Br)ccc21", "zone of inhibition at 100 µg/mL": "9.5 mm"}
{"structure_smiles_string": "CN[C@@H]1[C@H](O[C@H]2[C@H](O[C@H]3[C@H](O)[C@@H](O)[C@H](N=C(N)N)[C@@H](O)[C@@H]3N=C(N)N)O[C@@H](C)[C@]2(O)C=O)O[C@@H](CO)[C@H](O)[C@H]1O", "zone of inhibition at 100 µg/mL": "14 mm"}
{"structure_smiles_string": "CCn1cc(C=C2C(=O)OC(C)(C)OC2=O)c2ccccc21", "zone of inhibition at 100 µg/mL": "9 mm"}
{"structure_smiles_string": "CC1(C)OC(=O)C(=Cc2c[nH]c3ccc([N+](=O)[O-])cc23)C(=O)O1", "zone of inhibition at 100 µg/mL": "11 mm"}
{"structure_smiles_string": "CC1(C)OC(=O)C(=Cc2c[nH]c3ccccc23)C(=O)O1", "zone of inhibition at 100 µg/mL": "11 mm"}
{"structure_smiles_string": "Cn1cc(C=C2C(=O)OC(C)(C)OC2=O)c2ccccc21", "zone of inhibition at 100 µg/mL": "9 mm"}
{"structure_smiles_string": "CCn1cc(C=C2C(=O)OC(C)(C)OC2=O)c2cc(Br)ccc21", "zone of inhibition at 100 µg/mL": "9.5 mm"}
{"structure_smiles_string": "CCn1cc(C=C2C(=O)OC(C)(C)OC2=O)c2cc(OC)ccc21", "zone of inhibition at 100 µg/mL": "8 mm"}
{"structure_smiles_string": "COc1ccc2[nH]cc(C=C3C(=O)OC(C)(C)OC3=O)c2c1", "zone of inhibition at 100 µg/mL": "9 mm"}
{"structure_smiles_string": "Cn1cc(C=C2C(=O)OC(C)(C)OC2=O)c2cc([N+](=O)[O-])ccc21", "zone of inhibition at 100 µg/mL": "9 mm"}

====

system: Staphylococcus aureus; assay: Antibacterial activity against Staphylococcus aureus ATCC 6538 at 200 ug/ml after 24 hrs by agar well diffusion method; assay type: functional; settings: ATCC 6538, 24 h, read-out: DIZ
attribute_measured: zone of inhibition at 200 µg/mL (mm)

{"structure_smiles_string": "CC1(C)OC(=O)C(=Cc2c[nH]c3ccc([N+](=O)[O-])cc23)C(=O)O1", "tested_system": "Staphylococcus aureus", "attribute_measured": "zone of inhibition at 200 µg/mL", "reported_measurement": 15}
{"structure_smiles_string": "Cn1cc(C=C2C(=O)OC(C)(C)OC2=O)c2cc(Br)ccc21", "tested_system": "Staphylococcus aureus", "attribute_measured": "zone of inhibition at 200 µg/mL", "reported_measurement": 13}
{"structure_smiles_string": "CCn1cc(C=C2C(=O)OC(C)(C)OC2=O)c2ccccc21", "tested_system": "Staphylococcus aureus", "attribute_measured": "zone of inhibition at 200 µg/mL", "reported_measurement": 14}
{"structure_smiles_string": "CCn1cc(C=C2C(=O)OC(C)(C)OC2=O)c2cc([N+](=O)[O-])ccc21", "tested_system": "Staphylococcus aureus", "attribute_measured": "zone of inhibition at 200 µg/mL", "reported_measurement": 13}

====

Listed here are compounds together with their documented zone of inhibition at 100 µg/mL.
test system: Escherichia coli; experiment: Antibacterial activity against Escherichia coli ATCC 8739 at 100 ug/ml after 24 hrs by agar well diffusion method; type: functional; conditions: ATCC 8739, 24 h, read-out: DIZ

{"compound": "Cn1cc(C=C2C(=O)OC(C)(C)OC2=O)c2cc([N+](=O)[O-])ccc21", "zone of inhibition at 100 µg/mL [mm]": 13}
{"compound": "CC1(C)OC(=O)C(=Cc2c[nH]c3ccc([N+](=O)[O-])cc23)C(=O)O1", "zone of inhibition at 100 µg/mL [mm]": 15}
{"compound": "CC1(C)OC(=O)C(=Cc2c[nH]c3ccccc23)C(=O)O1", "zone of inhibition at 100 µg/mL [mm]": 15}
{"compound": "CCn1cc(C=C2C(=O)OC(C)(C)OC2=O)c2cc(OC)ccc21", "zone of inhibition at 100 µg/mL [mm]": 10}
{"compound": "CCn1cc(C=C2C(=O)OC(C)(C)OC2=O)c2cc(Br)ccc21", "zone of inhibition at 100 µg/mL [mm]": 10}
{"compound": "CCn1cc(C=C2C(=O)OC(C)(C)OC2=O)c2ccccc21", "zone of inhibition at 100 µg/mL [mm]": 13}
{"compound": "CN[C@@H]1[C@H](O[C@H]2[C@H](O[C@H]3[C@H](O)[C@@H](O)[C@H](N=C(N)N)[C@@H](O)[C@@H]3N=C(N)N)O[C@@H](C)[C@]2(O)C=O)O[C@@H](CO)[C@H](O)[C@H]1O [STREPTOMYCIN]", "zone of inhibition at 100 µg/mL [mm]": 17}
{"compound": "COc1ccc2c(c1)c(C=C1C(=O)OC(C)(C)OC1=O)cn2C", "zone of inhibition at 100 µg/mL [mm]": 13}
{"compound": "Cn1cc(C=C2C(=O)OC(C)(C)OC2=O)c2cc(Br)ccc21", "zone of inhibition at 100 µg/mL [mm]": 13.5}
